System: Proteus vulgaris OX.8
Test: Intraperitoneal Proteus vulgaris infection in mice: oral β-lactam with or without oral lactoferrin (Example 4)
Type: in vivo
Conditions: antibiotic with Lactoferrin + (0.5 mg/mouse, oral, simultaneous); ddY mice n=6; survivors at one week
Reported values of ED50 for individual entries
Write the quantity with the unit trailing the number.

Known ED50 results, listed for orientation:
- N[C@@H](C(=O)N[C@@H]1C(=O)N2C(C(=O)O)=C(Cl)CS[C@H]12)c1ccccc1 [cefaclor]: 0.058 mg/mouse
- CC1(C)S[C@@H]2[C@H](NC(=O)[C@H](N)c3ccccc3)C(=O)N2[C@H]1C(=O)O [ampicillin]: 0.148 mg/mouse
- C=CC1=C(C(=O)O)N2C(=O)[C@@H](NC(=O)/C(=N\OCC(=O)O)c3csc(N)n3)[C@H]2SC1 [cefixime]: 0.177 mg/mouse
- CC1=C(C(=O)O)N2C(=O)[C@@H](NC(=O)[C@H](N)c3ccccc3)[C@H]2SC1 [cefalexin]: 0.185 mg/mouse

Below: the item to evaluate.
Report ED50 from Proteus vulgaris OX.8 testing of COC1=C(C(=O)O)N2C(=O)[C@@H](NC(=O)[C@H](N)C3=CCC=CC3)[C@H]2SC1 [cefroxadine] 0.312 mg/mouse

====

Test system: Proteus vulgaris OX.8
Test: Intraperitoneal Proteus vulgaris infection in mice: oral β-lactam with or without oral lactoferrin (Example 4)
Assay type: in vivo
Details: fraction of ED50 of antibiotic alone; lactoferrin 0.5 mg/mouse
Reported values of simultaneous administration with lactoferrin reduced the ED50s to for individual entries

Known simultaneous administration with lactoferrin reduced the ED50s to results, listed for orientation:
* CC1=C(C(=O)O)N2C(=O)[C@@H](NC(=O)[C@H](N)c3ccccc3)[C@H]2SC1 [cefalexin] | 1/2
* N[C@@H](C(=O)N[C@@H]1C(=O)N2C(C(=O)O)=C(Cl)CS[C@H]12)c1ccccc1 [cefaclor] | 1/3
* C=CC1=C(C(=O)O)N2C(=O)[C@@H](NC(=O)/C(=N\OCC(=O)O)c3csc(N)n3)[C@H]2SC1 [cefixime] | 1/3

Provide measured simultaneous administration with lactoferrin reduced the ED50s to value, entry: CC1(C)S[C@@H]2[C@H](NC(=O)[C@H](N)c3ccccc3)C(=O)N2[C@H]1C(=O)O [ampicillin] 1/2
